- TESTED SYSTEM: T1, recombinant human IL4Rα-his protein (in house made) (human, UniProt P24394 26-232, limits assumed)
- T1 construct: also called Human IL4Ra-his
- PROTOCOL: SPR (Biacore), antibody captured, IL4Rα-his flowed
QUANTITY MEASURED: Start (RU)
Response body: numeric value in RU, unit text excluded.

huC2C1A1A1-V11 (antibody, human IgG4, V domains shown, Humanized, human IgG4/kappa) VH: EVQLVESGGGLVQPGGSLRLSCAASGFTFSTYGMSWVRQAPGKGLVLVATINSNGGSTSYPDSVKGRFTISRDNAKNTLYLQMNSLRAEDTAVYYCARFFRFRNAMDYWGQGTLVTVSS VL: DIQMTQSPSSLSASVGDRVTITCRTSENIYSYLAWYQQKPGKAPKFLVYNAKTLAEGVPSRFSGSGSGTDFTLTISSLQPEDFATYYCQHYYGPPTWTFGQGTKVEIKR    54.2

Okay, now this binder:
# Start (RU) (binder: huC2C1A1A1-V4 (antibody, human IgG4 S228P, kappa, V domains shown, Humanized, human IgG4/kappa) VH: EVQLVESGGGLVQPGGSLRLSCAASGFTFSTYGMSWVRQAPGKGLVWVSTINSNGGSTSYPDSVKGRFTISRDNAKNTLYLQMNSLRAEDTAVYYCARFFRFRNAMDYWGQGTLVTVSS VL: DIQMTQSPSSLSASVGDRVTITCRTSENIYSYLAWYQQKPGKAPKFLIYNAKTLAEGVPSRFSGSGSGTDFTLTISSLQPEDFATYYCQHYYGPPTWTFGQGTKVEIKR ) is 49.5

Every entry's value here was drawn from patent US20230105029A1.
